protocol.text: Octanol-water partition coefficient, log P of the compound
Format: physicochemical
parameter.measured: logP
One number for each entry.

CO[C@H]1/C=C/O[C@@]2(C)Oc3c(C)c(O)c4c(O)c(c(CNCCCN5CCCC5)c(O)c4c3C2=O)NC(=O)/C(C)=C\C=C\[C@H](C)[C@H](O)[C@@H](C)[C@@H](O)[C@@H](C)[C@H](OC(C)=O)[C@@H]1C = 2.04
CO[C@H]1/C=C/O[C@@]2(C)Oc3c(C)c(O)c4c(O)c(c(CNCc5cn(CN6C(=O)c7ccccc7C6=O)nn5)c(O)c4c3C2=O)NC(=O)/C(C)=C\C=C\[C@H](C)[C@H](O)[C@@H](C)[C@@H](O)[C@@H](C)[C@H](OC(C)=O)[C@@H]1C = 2.24
CCCc1cn(CCN2Cc3c4c(O)c5c(O)c(C)c6c(c5c3O)C(=O)[C@@](C)(O/C=C/[C@H](OC)[C@@H](C)[C@@H](OC(C)=O)[C@H](C)[C@H](O)[C@H](C)[C@@H](O)[C@@H](C)/C=C/C=C(/C)C2=N4)O6)nn1 = 3.13

Consider the additional molecule presented here.
Given item CO[C@H]1/C=C/O[C@@]2(C)Oc3c(C)c(O)c4c(O)c(c(CNCCN(C)C)c(O)c4c3C2=O)NC(=O)/C(C)=C\C=C\[C@H](C)[C@H](O)[C@@H](C)[C@@H](O)[C@@H](C)[C@H](OC(C)=O)[C@@H]1C , the value recorded as its logP is 1.48
